Procedure summary: inhibitors of TNFa-induced NFkB p65 translocation, primary screen, imaging, HUVEC, MLSMR starter and 10KST1 sets (AID 438);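 also: compound added about 3h40 before a 20 min TNFalpha stimulation; signal is the nuclear over cytoplasmic p65 intensity ratio per well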
Condition notes: HUVEC TNFa-induced p65 nuclear translocation; at 2 µM, active compounds read high, 0% TNFa-plus-vehicle, 100% no-TNFa wells
inhibition: recorded values
Give the number; % is assumed, so skip it.

These solved cases illustrate the format of a correct answer.
Molecule: CCc1nc(SCc2cc(Cl)ccc2OC)n[nH]1
inhibition (%): 8.7

Molecule: CCOC(=O)/C=C1\SCC(=O)N1Cc1ccc(Br)cc1
inhibition (%): -4.8

Asked: Sample "Cc1ccc(NC(=O)CSc2nnc(-c3ccncc3)n2C)cc1C" — what was its inhibition?
Given back: -13.9

Asked: Can you look up the measured inhibition of "CCOc1cc(NC(=O)c2ccco2)c(OCC)cc1NC(=O)Cc1cccc(OC)c1" for me?
Given back: -14.5

Asked: Which inhibition is reported for this molecule? "CCCn1cnc2c(cnn2-c2ccc(F)cc2)c1=O"
Given back: 5.5

Asked: # get_value(readout='inhibition', item= "Cn1c(SCc2c(F)cccc2Cl)nnc1-c1cccs1" )
Given back: 9.6

Asked: So what does the record say about inhibition for "Cc1ccc2c(CC(=O)OCc3csc(C)n3)coc2c1" ?
Given back: 0.2

Asked: # inhibition lookup, item "COc1cccc(-c2nnc(NC(=O)Cc3cccs3)s2)c1"
Given back: -5

Asked: Which inhibition value is on record for "Cc1nn(-c2ccc(F)cc2)c2sc(C(=O)N3CCCCCC3)cc12" ?
Given back: 2

Asked: Returns the measured inhibition for the input molecule. Input: COc1ccc(S(=O)(=O)N2CCCC(C(=O)N3CCCCCC3)C2)cc1 (stereo not drawn)
Given back: -5.2

Asked: Return reported inhibition; argument: "c1ccc(Cn2ncc3c2ncn2c(-c4ccncc4)nnc32)cc1"
Given back: -10.4

Asked: Return reported inhibition; argument: "CC1(C)CC(=O)c2sc(NS(C)(=O)=O)nc2C1"
Given back: -10.5

---

Target of assay: Voltage-gated potassium channel subunit beta-2 (Rattus norvegicus)
Procedure summary: enhancers of rat Kvbeta2 NADPH turnover – biochemical, NADPH fluorescence, primary screen (AID 623);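 also: fluorescence intensity change per second fitted from 20 to 320 s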
Condition notes: Recombinant KvBeta, NADPH fluorescence decrease slope, 10 min; at 10 µM; active compounds read low
Quantity measured: NADPH fluorescence slope
Write no unit; give the number alone.

Compound: COc1ccccc1C(=O)Nc1ccc(S(=O)(=O)N2CCCC2)cc1
Result number: -2.5e-05

Asked: Which value of NADPH fluorescence slope has been reported for "O=c1cnnc(NCc2ccccc2)[nH]1" in the records?
Given back: -2.6e-05

Asked: Which NADPH fluorescence slope value belongs to "Nc1nc(SCc2nc3scc(-c4cccs4)c3c(=O)[nH]2)n[nH]1" ?
Given back: 8.2e-06

Asked: Sample "O=S(=O)(c1ccccc1)c1nc(-c2ccco2)oc1NCCCN1CCOCC1" — what was its NADPH fluorescence slope?
Given back: 1.1e-05

Asked: I am curious: what NADPH fluorescence slope value has been reported for "CCOc1ccc2nc(NC(=O)CSc3nnnn3C3CCCCC3)sc2c1" ?
Given back: -3.7e-05

Asked: # input compound: "Cc1cc(NC(=O)CSc2nc3ccccc3n2CC(=O)N2CCCCC2)no1" ; wanted: its NADPH fluorescence slope
Given back: -4.9e-05

---

Procedure summary: TLR3 IRF3 reporter activation blockers – cell-based, poly I:C stimulus, luciferase, 10K MLSCN set, primary screen (AID 602277)
Condition notes: HEK293-TLR3 RL24 IRF3 luciferase reporter, at 10 µM
Activity calls are given as the source filed them.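 The calls were made as follows: active = inhibition of the reporter signal at or above 50%; inactive = inhibition below 50%.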
Lab note: assign the record to one of active, inactive

Some solved entries appear below for comparison.
Molecule: O=C(CN1CCC(NC(=O)c2ccc(F)cc2)CC1)NCc1ccccc1F
Assigned class: inactive
//
Molecule: CC(C)(C)n1nnnc1CN1CCN(C2CCCC2)CC1
Assigned class: inactive
//
Molecule: COc1ccc(CC(=O)NC2CCN(CC(=O)Nc3ccc4c(c3)OCCO4)CC2)cc1OC
Assigned class: inactive
//
Molecule: Cc1cc(C)nc(SCC(=O)Nc2ccc(S(=O)(=O)Nc3nccs3)cc2)n1
Assigned class: inactive
//
Molecule: NS(=O)(=O)c1ccc(CCNC(=O)c2cccnc2)cc1
Assigned class: active

Asked: For "COc1ccccc1N(CN1CCCC1=O)C(=O)c1c(F)cccc1Cl" , what call appears in the results of this test?
Given back: inactive

Asked: Tell me the assay call for "COc1ccc(S(=O)(=O)N2CCOCC2)cc1C(=O)Nc1cc(C)on1" please.
Given back: inactive

Asked: Could you please tell me the result logged for "Cn1c(=O)c2c(nc(SCCOc3ccc4ccc(=O)oc4c3)n2C)n(C)c1=O" in this assay?
Given back: inactive
